// data source = patent US20240059769A1

target: T1, cynomolgus monkey (cyno) TSLP (cynomolgus monkey, UniProt A0A7N9CAT7 29-159); experiment: SPR
T1 construct: also called cTSLP; cynomolgus TSLP
T1 sequence (A0A7N9CAT7 entry or part of it): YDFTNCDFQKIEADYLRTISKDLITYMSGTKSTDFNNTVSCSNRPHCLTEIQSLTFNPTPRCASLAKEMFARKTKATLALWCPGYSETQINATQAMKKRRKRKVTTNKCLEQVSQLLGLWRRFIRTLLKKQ
Overview of recorded kon for various binders
The response must be a number in M⁻¹ s⁻¹ with no trailing unit.

BINDER | kon [M⁻¹ s⁻¹]
BDG38.081 (antibody, V domains shown, IgG1) VH: QMQLVESGGGVVQPGRSLRLSCAASGFAFRTYGMHWVRQAPGKGLEWVAVIWDDGSNTHYADSVKGRFTITRDNSKNTLNLQMNSLRAEDTAVYYCVRAPQWYLTAEAFDLWGQGTMVTVSS VL: SYVLTQPPSVSVAPGQTARITCGGNMIGAYLVHWYQQKPGQAPLLVIYDDVDRPDRIPERFSGSNSGNTATLTISRVEAGDEADYYCQVWDHNTQQMVFGGGTKLTVL | 8.96e+06

Which kon reading was recorded for the binder BDG38.096 (antibody, V domains shown, IgG1) VH: QMQLVESGGGVVQPGRSLRLSCAASGFEFRTYGMHWVRQAPGKGLEWVAVIWDDGSNTHYADSVKGRFTITRDNSKNTLNLQMNSLRVEDTAVYYCVRAPQWYLTAEAFDLWGQGTMVTVSS VL: SYILTQPPSVSVAPGETARITCGGNLIGARLVHWYQQKPGQAPVLVIYDDSDRPSRIPERFSGSNIGNTATLTISRVEEGDEADYYCQVWDYSSDSMVFGGGTKLTVL ? 3.39e+06

Which kon reading was recorded for the binder BDG38.128 (antibody, V domains shown, IgG1) VH: QMQLVESGGGVVQPGRSLTLSCAASGFEFRTYGMHWVRQAPGKGLEWVAVIWDDGSNTHYADSVKGRFTITRDNSKNTLNLQMNSLRVEDTAVYYCVRAPQWYLTAEAFDLWGQGTMVTVSS VL: SYILTQPPSVSVAPGETATITCGGNLIGAKLVHWYQQKPGQAPVLVIYDDSDRPSRIPERFSGSNSGNTATLTISDVEEGDEADYYCQVWDYYADTMVFGGGTKLTVL ? 1.55e+06

Which kon reading was recorded for the binder BDG38.075 (antibody, V domains shown, IgG1) VH: QMQLVESGGGVVQPGRSLRLSCAASGFAFRTYGMHWVRQAPGKGLEWVAVIWYDGSATHYADSVKGRFTITRDNSKNTLNLQMNSLRAEDTAVYYCVRAPQWYLSAEAFDLWGQGTMVTVSS VL: SYVLTQPPSVSVAPGETATITCGGNLIGAYLVHWYQQKPGQAPVLVIYDDVDRPARIPERFSGSNSGNTATLTISRVEAGDEADYYCQVWDHDTNTMVFGGGTKLTVL ? 2.72e+06

Which kon reading was recorded for the binder BDG38.129 (antibody, V domains shown, IgG1) VH: QMQLVESGGGVVQPGRSLTLSCAASGFEFRTYGMHWVRQAPGKGLEWVGVIWDDGSNTHYADSVKGRFTITRDNSKNTLNLQMNSLRVEDTAVYYCARAPQWYLTAEAFDLWGQGTMVTVSS VL: SYILTQPPSVSVAPGQTATITCGGNLIGAKLVHWYQQKPGQAPVLVIYDDSDRPSRIPERFSGSNIGNTATLTISDVEEGDEADYYCQVWDYSSDHMVFGGGTKLTVL ? 3.75e+06
